- System: Human dermal adult fibroblast cells
- METHOD SUMMARY: Cell Viability Determination (resazurin)
- Assay type: cell-based
- MEASUREMENT SETUP: human dermal adult fibroblasts, compound 200 micromolar, 24 hours, normalized to untreated vehicle control, n=3
Criterion: Mean Percent Cell Viability strictly under 80%. Met: Condition met. Not met: Condition not met.

>  <COMPOUND>
CC[C@@H](n1cnc2c(N)nc3ccccc3c21)C1(O)CCCC1

>  <ASSIGNED LABEL>
Condition not met

$$$$

--- query ---
Does the reported Mean Percent Cell Viability of the following compound sit strictly below 80%? Nc1nc2ccccc2c2c1ncn2CC1(O)CCCC1 [Comparative Example, reference compound]
Condition met
